Molecular target: ACE (Oryctolagus cuniculus, UniProt P12822)
Sequence (P12822 34-1310): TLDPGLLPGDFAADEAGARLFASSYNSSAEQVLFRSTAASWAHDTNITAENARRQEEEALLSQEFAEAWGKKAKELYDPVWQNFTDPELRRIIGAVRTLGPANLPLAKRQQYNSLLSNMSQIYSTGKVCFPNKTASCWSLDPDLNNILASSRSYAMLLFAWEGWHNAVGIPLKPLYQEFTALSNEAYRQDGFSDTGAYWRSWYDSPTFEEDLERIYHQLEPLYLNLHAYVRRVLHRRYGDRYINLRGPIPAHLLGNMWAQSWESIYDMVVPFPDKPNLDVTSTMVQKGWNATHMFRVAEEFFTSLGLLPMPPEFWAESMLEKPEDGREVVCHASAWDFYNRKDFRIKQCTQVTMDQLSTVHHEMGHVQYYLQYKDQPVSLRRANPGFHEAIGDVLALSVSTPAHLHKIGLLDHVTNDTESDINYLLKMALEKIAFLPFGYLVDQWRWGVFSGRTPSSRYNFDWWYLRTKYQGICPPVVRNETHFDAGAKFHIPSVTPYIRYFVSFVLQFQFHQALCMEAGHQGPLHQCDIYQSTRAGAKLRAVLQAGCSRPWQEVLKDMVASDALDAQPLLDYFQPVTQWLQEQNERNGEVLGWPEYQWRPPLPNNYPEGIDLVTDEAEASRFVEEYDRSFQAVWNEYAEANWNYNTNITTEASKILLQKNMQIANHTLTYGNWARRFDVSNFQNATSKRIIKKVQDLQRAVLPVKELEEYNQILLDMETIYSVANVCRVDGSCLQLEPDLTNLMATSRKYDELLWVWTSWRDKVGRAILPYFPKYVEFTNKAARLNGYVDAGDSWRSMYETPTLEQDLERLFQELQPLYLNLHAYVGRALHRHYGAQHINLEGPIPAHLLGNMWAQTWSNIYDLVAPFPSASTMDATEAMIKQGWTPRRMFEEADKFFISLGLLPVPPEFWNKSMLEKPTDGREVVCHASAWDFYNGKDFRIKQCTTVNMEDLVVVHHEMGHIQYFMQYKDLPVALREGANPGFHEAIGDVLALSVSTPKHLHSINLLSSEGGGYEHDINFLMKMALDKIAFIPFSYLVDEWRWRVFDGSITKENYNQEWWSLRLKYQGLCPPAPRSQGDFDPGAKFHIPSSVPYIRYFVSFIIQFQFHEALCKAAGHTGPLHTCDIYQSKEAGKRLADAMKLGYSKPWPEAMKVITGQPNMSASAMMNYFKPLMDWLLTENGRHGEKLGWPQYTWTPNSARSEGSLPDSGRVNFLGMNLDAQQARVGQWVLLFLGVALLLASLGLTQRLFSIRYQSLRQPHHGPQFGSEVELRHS
pIC50: −log10 of the molar value.
readout label: pIC50

The cases that follow already have their pIC50 on record.
smiles structure | pIC50
CCN1C/C(=C\c2cc(OC)c(OC)c(OC)c2)C(=O)/C(=C/c2cc(OC)c(OC)c(OC)c2)C1 | 5.49
CCCCN1C/C(=C\c2ccccc2)C(=O)/C(=C/c2ccccc2)C1 | 4.19
CCCN1C/C(=C\c2ccc([N+](=O)[O-])cc2)C(=O)/C(=C/c2ccc([N+](=O)[O-])cc2)C1 | 4.04
CCN1C/C(=C\c2ccc([N+](=O)[O-])cc2)C(=O)/C(=C/c2ccc([N+](=O)[O-])cc2)C1 | 4.02
CCCN1C/C(=C\c2ccccc2)C(=O)/C(=C/c2ccccc2)C1 | 4.29

a = CCN1C/C(=C\c2ccccc2)C(=O)/C(=C/c2ccccc2)C1
b = CCCCCN1C/C(=C\c2ccc([N+](=O)[O-])cc2)C(=O)/C(=C/c2ccc([N+](=O)[O-])cc2)C1
c = CCCCN1C/C(=C\c2cc(OC)c(OC)c(OC)c2)C(=O)/C(=C/c2cc(OC)c(OC)c(OC)c2)C1
d = CCCN1C/C(=C\c2ccc(O)c(O)c2)C(=O)/C(=C/c2ccc(O)c(O)c2)C1
e = CCCN1C/C(=C\c2cc(OC)c(OC)c(OC)c2)C(=O)/C(=C/c2cc(OC)c(OC)c(OC)c2)C1
Sort (5 molecules) by pIC50: min first. List each label, following the requested order.
b, a, d, c, e

1 = CCCCN1C/C(=C\c2ccc(O)c(O)c2)C(=O)/C(=C/c2ccc(O)c(O)c2)C1
2 = CCCCCN1C/C(=C\c2ccccc2)C(=O)/C(=C/c2ccccc2)C1
3 = CCCCCN1C/C(=C\c2cc(OC)c(OC)c(OC)c2)C(=O)/C(=C/c2cc(OC)c(OC)c(OC)c2)C1
4 = CCCCN1C/C(=C\c2ccc([N+](=O)[O-])cc2)C(=O)/C(=C/c2ccc([N+](=O)[O-])cc2)C1
Rank order required: pIC50, descending. List each label, following the requested order.
3, 1, 2, 4
